system: Scierotinia minor; test: Fungal growth inhibition, treated disc on agar (SCL MIN); assay type: cell-based; conditions: disc dipped in 500 mg/l, 29° C., read-out: Percent Growth Inhibition, SCL MIN
QUANTITY: inhibition at 500 µg/mL (%)

>>> endpoint_result("CCCCC(C#N)(CCc1ccc(OCCF)cc1)c1cccnc1 (stereo not shown) [Compound 68]")
100
>>> endpoint_result("CCCC(C#N)(Cc1ccc(Oc2ccccc2)cc1)c1cccnc1 (stereo not shown) [Compound 17]")
10
>>> endpoint_result("Cc1ccc(CCC(C#N)(CCCF)c2cccnc2)cc1 (stereo not shown) [Compound 81]")
0
>>> endpoint_result("CC(C)CC(C#N)(CCc1ccc(F)cc1)c1cccnc1 (stereo not shown) [Compound 39]")
42
>>> endpoint_result("CC(C)=CCC(C#N)(CCc1ccc(F)cc1)c1cccnc1 (stereo not shown) [Compound 47]")
100
>>> endpoint_result("CCCCC(C#N)(CCc1ccccc1C(F)(F)F)c1cccnc1 (stereo not shown) [Compound 73]")
100
>>> endpoint_result("CCCCCCC(C#N)(Cc1ccc(C(C)(C)C)cc1)c1cccnc1 (stereo not shown) [Compound 16]")
5
>>> endpoint_result("N#CC(CCc1ccc(F)cc1)(CC(F)(F)F)c1cccnc1 (stereo not shown) [Compound 52]")
100
>>> endpoint_result("COCC(C#N)(CCc1ccc(F)cc1)c1cccnc1 (stereo not shown) [Compound 51]")
100
>>> endpoint_result("C#CCC(CCc1ccccc1)(C(N)=S)c1cccnc1 (stereo not shown) [Compound 61]")
100
>>> endpoint_result("CCCCC(C#N)(CCCc1ccc(OC)cc1)c1cccnc1 (stereo not shown) [Compound 76]")
100
>>> endpoint_result("CCCCCCC(C#N)(CCc1ccc(OC)cc1)c1cccnc1 (stereo not shown) [Compound 36]")
100
>>> endpoint_result("C=CCC(C#N)(CCCc1ccccc1OC)c1cccnc1 (stereo not shown) [Compound 70]")
100
>>> endpoint_result("CCCCCC(CCc1ccc(F)cc1)(C(N)=O)c1cccnc1 (stereo not shown) [Compound 62]")
100
>>> endpoint_result("CCCCOc1ccc(CCC(C#N)(CCCC)c2cccnc2)cc1 (stereo not shown) [Compound 54]")
100
>>> endpoint_result("CCCCCC(C#N)(CCc1ccccc1)c1cccnc1 (stereo not shown) [Compound 3]")
100

All figures here come from patent US5945436A.
